# System Under Test: human TPH1 (Homo sapiens)
# Sequence (P17752 whole entry): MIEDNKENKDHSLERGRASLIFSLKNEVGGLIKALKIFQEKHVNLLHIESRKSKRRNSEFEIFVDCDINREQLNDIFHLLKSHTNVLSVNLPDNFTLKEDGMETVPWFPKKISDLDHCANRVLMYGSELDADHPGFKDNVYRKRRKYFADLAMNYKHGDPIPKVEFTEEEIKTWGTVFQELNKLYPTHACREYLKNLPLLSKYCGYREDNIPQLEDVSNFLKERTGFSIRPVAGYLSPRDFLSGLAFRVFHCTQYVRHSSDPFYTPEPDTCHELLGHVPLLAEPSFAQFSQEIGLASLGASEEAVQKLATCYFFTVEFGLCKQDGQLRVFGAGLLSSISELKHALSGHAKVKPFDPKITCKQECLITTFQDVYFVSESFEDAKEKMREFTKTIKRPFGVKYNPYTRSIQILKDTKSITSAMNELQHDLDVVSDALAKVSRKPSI
# Assay Name: biochemical
Measured Endpoint: IC50 (nM)

Cc1ccc(C2c3c(nc4cc(C(F)(F)F)ccn34)CCN2C(=O)COc2cccnc2Cl)cc1C (stereo not shown) ... 239

I = COc1ccc(C2c3c(nc4cc(C(F)(F)F)ccn34)CCN2C(=O)COc2ccc3c(c2C)CCN(C)C3)c(F)c1 (stereo not shown)
II = COc1ccc(C2c3c(nc4cc(Cl)ccn34)CCN2C(=O)COc2ccc3ccccc3c2)cc1O (stereo not shown)
III = COC(C)(C)c1ccc(C2c3c(nc4ccccn34)CCN2C(=O)COc2ccc(NS(C)(=O)=O)nc2Cl)c(F)c1 (stereo not shown)
Task: List items by IC50 in falling order. # respond with the labels, arranged in the requested order
Result: III, II, I
(III: 591 nM, II: 219 nM, I: 117 nM)

----------
# System Under Test: human TPH1 (Homo sapiens)
# Assay Name: biochemical
pIC50: −log10 of the molar value.
Measured Endpoint: pIC50

Cc1c(CN2CCOCC2)ccc(OCC(=O)N2CCc3nc4cc(C(F)(F)F)ccn4c3C2c2cnn(-c3ccccc3)c2)c1C (centres unmarked) [Example 3.41.3] ... 7.17
O=C(COc1ccc(CN2CCOCC2)cc1Cl)N1CCc2nc3cc(C(F)(F)F)ccn3c2C1c1ncn2ccccc12 (centres unmarked) [Example 3.48.1] ... 6.67
O=C(COc1ccc(N2CCOCC2)nc1Cl)N1CCc2nc3cc(C(F)(F)F)ccn3c2C1c1ccc(Cl)cc1F (centres unmarked) [Example 3.4.6] ... 8.30
COc1ccc(C2c3c(nc4cc(C(F)(F)F)ccn34)CCN2C(=O)COc2cccnc2Cl)cc1OC (centres unmarked) [Example 3.1.15] ... 7.17
O=C(COc1ccc(N2CCOCC2)nc1Cl)N1CCc2nc3ccccn3c2C1c1ccc(C2CC2)cc1F (centres unmarked) [Example 1.5.2] ... 8.22

P = O=C(COc1ccc(N2CCOCC2)cc1Cl)N1CCc2nc3ccccn3c2C1c1ncc(C2CC2)cc1F (centres unmarked) [Example 1.12.2]
Q = Cc1ccc(OCC(=O)N2CCc3nc4cc(C(F)(F)F)ccn4c3C2c2cccnc2F)cc1 (centres unmarked) [Example 3.2.3]
R = O=C(COc1ccc(CN2CCOCC2)cc1Cl)N1CCc2nc3cc(C(F)(F)F)ccn3c2C1c1ccc(Cl)nc1 (centres unmarked) [Example 3.37.1]
S = O=C(COc1ccc(N2CCOCC2)nc1Cl)N1CCc2nc3ccccn3c2C1c1ccc(C2CC2)nc1F (centres unmarked) [Example 1.13.1]
T = Cc1cc(C2c3c(nc4cc(C(F)(F)F)ccn34)CCN2C(=O)COc2ccc3ccccc3c2)ccc1F (centres unmarked) [Example 3.33.1]
Task: Please produce an ascending ranking of these compounds based on pIC50. Field: ranking. Enter the labels in the order requested.
Result: Q, T, R, P, S

I = COCCCOc1cc(C2c3c(nc4cc(Cl)ccn34)CCN2C(=O)COc2ccc3ccccc3c2)ccc1OC (centres unmarked) [Example 2.11.1]
II = COc1cc(F)c(C2c3c(nc4cc(C(F)(F)F)ccn34)CCN2C(=O)COc2ccc3c(c2)CNCC3)cc1OC (centres unmarked) [Example 3.18.4]
III = CCc1cc2nc3c(n2cc1C)C(c1ccc(OC)c(OC)c1)N(C(=O)COc1ccc(Cl)cc1Cl)CC3 (centres unmarked) [Example 6.1.1]
Task: Order the 3 compounds from highest to lowest pIC50. Present the labels in the sequence the task asks for.
Result: III, I, II

Where these numbers come from: patent US20180155344A1
